study.system: Serine/threonine-protein kinase ULK3 (Homo sapiens)
Sequence (Q6PHR2 whole entry): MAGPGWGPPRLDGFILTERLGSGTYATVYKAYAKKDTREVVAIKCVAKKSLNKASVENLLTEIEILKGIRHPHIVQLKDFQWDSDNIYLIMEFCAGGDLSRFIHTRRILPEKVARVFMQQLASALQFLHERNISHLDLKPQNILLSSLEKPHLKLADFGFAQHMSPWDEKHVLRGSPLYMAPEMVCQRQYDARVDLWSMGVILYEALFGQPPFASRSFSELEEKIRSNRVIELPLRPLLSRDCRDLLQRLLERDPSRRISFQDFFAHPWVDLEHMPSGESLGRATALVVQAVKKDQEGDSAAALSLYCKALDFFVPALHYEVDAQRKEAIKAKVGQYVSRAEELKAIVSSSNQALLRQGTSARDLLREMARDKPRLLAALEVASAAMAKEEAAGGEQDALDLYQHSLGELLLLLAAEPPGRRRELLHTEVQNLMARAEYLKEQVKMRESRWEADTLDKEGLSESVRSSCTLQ
pIC50: −log10 of the molar value.

[
  {
    "molecule.smiles": "CC(C)(C)NS(=O)(=O)c1cncc(-c2ccn3nc(N)nc3c2)c1",
    "pIC50": "< 5.00"
  }
]

----------
study.system: Phosphatidylinositol 4,5-bisphosphate 3-kinase catalytic subunit delta isoform (Homo sapiens, UniProt O00329)
Sequence (O00329 whole entry, canonical isoform): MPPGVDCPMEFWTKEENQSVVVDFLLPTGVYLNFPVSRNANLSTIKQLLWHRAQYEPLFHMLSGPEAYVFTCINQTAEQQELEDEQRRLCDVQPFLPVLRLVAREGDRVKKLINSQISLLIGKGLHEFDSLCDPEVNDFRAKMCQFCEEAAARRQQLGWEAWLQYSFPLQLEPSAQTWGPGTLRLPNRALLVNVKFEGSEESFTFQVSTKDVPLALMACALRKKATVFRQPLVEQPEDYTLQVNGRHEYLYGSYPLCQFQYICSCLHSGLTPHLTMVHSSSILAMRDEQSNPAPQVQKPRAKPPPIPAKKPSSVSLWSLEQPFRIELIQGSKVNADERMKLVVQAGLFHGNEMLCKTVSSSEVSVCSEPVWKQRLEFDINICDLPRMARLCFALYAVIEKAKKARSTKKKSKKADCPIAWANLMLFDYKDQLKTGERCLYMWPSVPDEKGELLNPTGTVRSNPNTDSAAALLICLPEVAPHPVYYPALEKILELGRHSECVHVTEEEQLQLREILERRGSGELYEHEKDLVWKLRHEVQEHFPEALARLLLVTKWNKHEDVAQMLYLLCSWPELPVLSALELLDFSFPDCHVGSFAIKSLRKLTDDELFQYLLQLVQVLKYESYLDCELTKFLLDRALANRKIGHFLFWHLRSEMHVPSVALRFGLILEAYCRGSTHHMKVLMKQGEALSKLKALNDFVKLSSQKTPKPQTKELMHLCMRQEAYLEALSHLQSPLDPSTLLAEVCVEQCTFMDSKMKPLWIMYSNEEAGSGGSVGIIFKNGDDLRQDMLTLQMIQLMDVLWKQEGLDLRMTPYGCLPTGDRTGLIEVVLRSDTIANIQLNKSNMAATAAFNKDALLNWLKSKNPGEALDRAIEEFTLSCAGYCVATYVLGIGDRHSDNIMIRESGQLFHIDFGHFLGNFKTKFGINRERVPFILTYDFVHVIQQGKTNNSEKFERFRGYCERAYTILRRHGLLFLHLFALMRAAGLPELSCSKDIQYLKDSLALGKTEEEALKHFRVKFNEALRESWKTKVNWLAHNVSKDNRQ
test: Inhibition of PIK3Cd

[
  {
    "molecule.smiles": "CC(C)(C)NS(=O)(=O)c1cncc(-c2ccn3nc(N)nc3c2)c1",
    "IC50, nM": 708
  }
]

----------
study.system: Epithelial discoidin domain-containing receptor 1 (Homo sapiens, UniProt Q08345)
Sequence (Q08345 whole entry, the tested form may be a part): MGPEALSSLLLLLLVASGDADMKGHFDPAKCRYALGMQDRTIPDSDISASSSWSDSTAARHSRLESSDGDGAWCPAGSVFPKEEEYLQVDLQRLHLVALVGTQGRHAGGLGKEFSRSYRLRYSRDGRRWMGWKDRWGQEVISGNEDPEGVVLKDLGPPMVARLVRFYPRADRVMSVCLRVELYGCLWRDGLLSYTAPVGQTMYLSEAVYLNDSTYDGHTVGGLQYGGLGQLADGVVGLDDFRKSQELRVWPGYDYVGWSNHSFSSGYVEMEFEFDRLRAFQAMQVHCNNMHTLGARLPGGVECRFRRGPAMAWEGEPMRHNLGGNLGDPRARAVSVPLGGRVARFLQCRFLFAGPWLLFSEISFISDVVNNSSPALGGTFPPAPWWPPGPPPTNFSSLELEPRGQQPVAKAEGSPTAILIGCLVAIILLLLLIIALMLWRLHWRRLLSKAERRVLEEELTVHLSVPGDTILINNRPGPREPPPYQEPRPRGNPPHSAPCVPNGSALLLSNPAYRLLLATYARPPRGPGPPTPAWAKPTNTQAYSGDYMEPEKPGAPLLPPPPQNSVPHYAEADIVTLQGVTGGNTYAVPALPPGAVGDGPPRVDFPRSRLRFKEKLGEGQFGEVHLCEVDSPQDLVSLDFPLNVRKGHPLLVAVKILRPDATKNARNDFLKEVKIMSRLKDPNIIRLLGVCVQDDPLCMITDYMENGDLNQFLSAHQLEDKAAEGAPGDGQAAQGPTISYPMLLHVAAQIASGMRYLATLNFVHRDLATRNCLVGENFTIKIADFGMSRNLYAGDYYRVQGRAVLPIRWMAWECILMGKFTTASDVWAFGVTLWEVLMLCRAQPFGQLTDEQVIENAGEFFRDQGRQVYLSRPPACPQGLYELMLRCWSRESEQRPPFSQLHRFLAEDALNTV
endpoint.label: IC50

[
  {
    "molecule.smiles": "CC(C)(C)NS(=O)(=O)c1cncc(-c2ccn3nc(N)nc3c2)c1",
    "result": "> 10 µM"
  }
]

// data source = ChEMBL document CHEMBL2203257
